Listed molecules paired with reported INHIBITION
test system: Plasmodium berghei; assay: Screen against P. berghei liver stage (PbLuc), transformed with Luciferase, at 10uM; type: functional, HepG2; settings: tested at 10 uM
Hit rate of the full screen: of about 69,000 compounds, about 8,600 (12%) showed an effect of 50% or more. The list comes from a sample in which strong results are over-represented; it also holds close analogues and randomly drawn compounds.
Quantity kind: INHIBITION (%)

Molecule: CCOC(=O)N1CCN(C(=O)c2snnc2-c2ccc(OC)cc2)CC1
Target: Plasmodium berghei
Quantity kind: INHIBITION
Data value: 4.66

Molecule: CCc1ncc(CN2CCC(CCc3ccccc3)CC2)cn1
Target: Plasmodium berghei
Quantity kind: INHIBITION
Data value: 37.8

Molecule: O=C(NCc1cccs1)[C@H]1CC[C@@H]2[C@@H](CCN2Cc2ccoc2)O1
Target: Plasmodium berghei
Quantity kind: INHIBITION
Data value: -5.31

Molecule: CC(=O)N1CCCN(C(=O)c2ccc(Sc3ccccn3)cc2)CC1
Target: Plasmodium berghei
Quantity kind: INHIBITION
Data value: -0.217

Molecule: CS(=O)(=O)N1CC[C@H]2O[C@H](C(=O)NCc3cccnc3)CC[C@H]21
Target: Plasmodium berghei
Quantity kind: INHIBITION
Data value: 11.4

Molecule: O=C1CCC(C(=O)N2CCOC(Cc3cccc4ccccc34)C2)=NN1 (configuration not stated)
Target: Plasmodium berghei
Quantity kind: INHIBITION
Data value: 53.7

Molecule: Cc1cc(C)n(C2CCCN(C(=O)CCNc3ncccn3)C2)n1 (configuration not stated)
Target: Plasmodium berghei
Quantity kind: INHIBITION
Data value: 41.5

Molecule: CCN1CCC(N2CCN(C)C3(CCC(=O)N(CCOC)CC3)C2)CC1 (configuration not stated)
Target: Plasmodium berghei
Quantity kind: INHIBITION
Data value: 7.92

Molecule: CS(=O)(=O)N1CC[C@H]2O[C@H](C(=O)NCCc3ccccn3)CC[C@H]21
Target: Plasmodium berghei
Quantity kind: INHIBITION
Data value: 54.7

Molecule: O=C(NCCc1ccccn1)[C@@H]1CC[C@@H]2[C@@H](CCN2Cc2ccoc2)O1
Target: Plasmodium berghei
Quantity kind: INHIBITION
Data value: 59.9

Molecule: Cc1sc(C(=O)NC(C)C)cc1S(=O)(=O)N(C)C
Target: Plasmodium berghei
Quantity kind: INHIBITION
Data value: -16.8

Molecule: O=C1CCC(C(=O)N2CCOC(Cc3ccccc3Cl)C2)=NN1 (configuration not stated)
Target: Plasmodium berghei
Quantity kind: INHIBITION
Data value: 71.1

Molecule: c1ccc(-c2nnc(CN3C[C@H]4CC[C@@H](C3)N(CC3CCC3)C4)o2)cc1
Target: Plasmodium berghei
Quantity kind: INHIBITION
Data value: 46.6

Molecule: c1c[nH]c(-c2cn(CCSc3cnn[nH]3)nn2)n1
Target: Plasmodium berghei
Quantity kind: INHIBITION
Data value: 33.2

Molecule: CN(C)c1cc(C(=O)N2CCCN(Cc3cscn3)CC2)ccn1
Target: Plasmodium berghei
Quantity kind: INHIBITION
Data value: 20.1

Molecule: CC(CO)CN(Cc1ccccc1)Cc1c[nH]cn1 (configuration not stated)
Target: Plasmodium berghei
Quantity kind: INHIBITION
Data value: 9.55

Molecule: CNc1ncc(CN2CCC(CCc3ccccc3)CC2)cn1
Target: Plasmodium berghei
Quantity kind: INHIBITION
Data value: 67.5

Molecule: CS(=O)(=O)N1CC[C@H]2O[C@H](C(=O)NCCc3ccncc3)CC[C@H]21
Target: Plasmodium berghei
Quantity kind: INHIBITION
Data value: -35.9

Molecule: O=C(CCc1cc(Cl)no1)N1CCC(c2cc3ncccc3cn2)CC1
Target: Plasmodium berghei
Quantity kind: INHIBITION
Data value: 23.2

Molecule: c1ccc(CN2CCc3c(CNc4nccs4)n[nH]c3C2)nc1
Target: Plasmodium berghei
Quantity kind: INHIBITION
Data value: 34.4

Molecule: Cc1cc(N2CCN(Cc3cn(C)nc3C)CC2)cc(C2CCCN2)n1 (configuration not stated)
Target: Plasmodium berghei
Quantity kind: INHIBITION
Data value: -10

Molecule: Cc1nn(C)cc1S(=O)(=O)N(C)[C@@H]1CCC[C@@H](n2ccnc2)[C@@H]1O
Target: Plasmodium berghei
Quantity kind: INHIBITION
Data value: 23
